B1: HSP90AB1 (parent)
chain: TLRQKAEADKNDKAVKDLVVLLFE

- Variants of: B1
- assay.explanation: protein stability index of a GFP-peptide fusion (GPS, HEK-293T) (PSI 1-6); higher = more stable;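 note: lentivirally expressed fusions sorted by FACS into six bins by GFP to DsRed ratio, PSI derived from sequencing read proportions per bin multiplied by bin number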
- measurement.setup: c terminus: a fixed tail appended
metric.name: protein stability index

Task: Consider the variant shown here: TLRQKAEADKNDKQVKDLVVLLFE [A14Q] What is its recorded protein stability index?
Result: 2.92

Task: Repeat with MLRQKAEADKNDKAVKDLVVLLFE [T1M]
Result: 3.02

Task: Same again, this time with TLRQHAEADKNDKAVKDLVVLLFE [K5H]
Result: 3.01

Task: Now the variant TMRQKAEADKNDKAVKDLVVLLFE [L2M]
Result: 2.95

Task: Next entry: HLRQKAEADKNDKAVKDLVVLLFE [T1H]
Result: 3.09

Task: Could you do the same for TSRQKAEADKNDKAVKDLVVLLFE [L2S] , please?
Result: 3.05

Task: Now the same for TLRQKAEADKNEKAVKDLVVLLFE [D12E]
Result: 2.95

These measurements were taken from the supplement of paper PMC10567573.
